- Experimental System: T1, recombinant human IL-6 (human, UniProt P05231 30-212)
- T1 construct: Bought protein
- T1 sequence (P05231 30-212 limits assumed): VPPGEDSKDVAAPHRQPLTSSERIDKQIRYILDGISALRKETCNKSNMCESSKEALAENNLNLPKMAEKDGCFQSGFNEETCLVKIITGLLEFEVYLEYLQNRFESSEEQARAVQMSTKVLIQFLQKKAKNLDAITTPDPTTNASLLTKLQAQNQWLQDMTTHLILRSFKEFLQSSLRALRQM
- Assay Summary: SPR Biacore, purified Ab on Protein A chip, IL-6 analyte, 37 C
Task for the reader: assign each of the following binders its reported kon.
The reply should be a number in M⁻¹ s⁻¹, with the unit left off.

Input line: Write down kon measured for item anti-IL-6 antibody, light chain M88V (heavy chain WT) (antibody, V domains shown, See note of m2; also called WT / M88V) VH: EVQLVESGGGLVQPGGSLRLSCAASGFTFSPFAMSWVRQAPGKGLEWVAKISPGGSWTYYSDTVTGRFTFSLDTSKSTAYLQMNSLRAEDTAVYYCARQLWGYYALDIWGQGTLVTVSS VL: DIQLTQSPSSLSASVGDRVTITCSASISVSYMYWYQQKPGKAPKLLIYDMSNLASGVPSRFSGSGSGTDFTLTISSLQPEDFATYYCVQWSGYPYTFGQGTKVEIK
Output line: 619000

Input line: Write down kon measured for item anti-IL-6 antibody, light chain T96V (heavy chain WT) (antibody, V domains shown, See note of m2; also called WT / T96V) VH: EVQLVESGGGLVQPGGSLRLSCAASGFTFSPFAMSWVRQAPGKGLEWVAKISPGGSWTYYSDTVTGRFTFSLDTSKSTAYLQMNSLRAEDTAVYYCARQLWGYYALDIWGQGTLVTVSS VL: DIQLTQSPSSLSASVGDRVTITCSASISVSYMYWYQQKPGKAPKLLIYDMSNLASGVPSRFSGSGSGTDFTLTISSLQPEDFATYYCMQWSGYPYVFGQGTKVEIK
Output line: 921000

Input line: Write down kon measured for item anti-IL-6 antibody, heavy chain variant II (M34W, G66D, I108V) / light chain variant IV (M32L, M50A, N52S, M88Q) (antibody, V domains shown, See note of m39; also called M34W, G66D, I108V/ M32L, M50A, N52S, M88Q; II/IV) VH: EVQLVESGGGLVQPGGSLRLSCAASGFTFSPFAWSWVRQAPGKGLEWVAKISPGGSWTYYSDTVTDRFTFSLDTSKSTAYLQMNSLRAEDTAVYYCARQLWGYYALDVWGQGTLVTVSS VL: DIQLTQSPSSLSASVGDRVTITCSASISVSYLYWYQQKPGKAPKLLIYDASSLASGVPSRFSGSGSGTDFTLTISSLQPEDFATYYCQQWSGYPYTFGQGTKVEIK
Output line: 1.08e+06

Input line: Write down kon measured for item anti-IL-6 antibody, light chain M50D (heavy chain WT) (antibody, V domains shown, See note of m2; also called WT / M50D) VH: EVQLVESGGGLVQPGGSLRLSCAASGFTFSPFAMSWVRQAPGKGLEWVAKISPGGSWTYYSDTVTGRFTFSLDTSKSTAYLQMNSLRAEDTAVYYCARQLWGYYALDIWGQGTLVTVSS VL: DIQLTQSPSSLSASVGDRVTITCSASISVSYMYWYQQKPGKAPKLLIYDDSNLASGVPSRFSGSGSGTDFTLTISSLQPEDFATYYCMQWSGYPYTFGQGTKVEIK
Output line: 1.49e+06
